test: PSAC antagonists in infected red cells, primary screen, cell-based, P. falciparum Indochina, OD700, 1 h (AID 1154); conditions: P. falciparum Indochina infected RBC osmotic lysis, called active from +8 up or from −8 down
Activity calls are given as the source filed them.
Answer with one of the outcomes given here: true (1) (active), false (0) (inactive)

Field: example entries. Status: answers known.
smi	cat
NC(=O)NCC#Cc1ccc2c(c1)[C@]1(C(=O)N2)[C@H](C(=O)Nc2nc3ccccc3s2)[C@H]2C(=O)O[C@H](c3ccccc3)[C@H](c3ccccc3)N2[C@@H]1c1ccc(O)cc1	false (0)
[N-]=[N+]=Nc1ccccc1C[C@]1(C(=O)NCc2ccccc2)N=C(c2ccc(OCCCO)cc2)O[C@H]1c1ccccc1	true (1)
CC(=O)NCCCC[C@@H]1NC(=O)[C@@H]2C[C@H](C(=O)O)[C@H](c3ccc(O)cc3)N2C1=O	false (0)

Okay, now this compound:
## Task For CCCC=C(CCC)[C@@H](NP(=O)(c1ccccc1)c1ccccc1)c1ccc(C(F)(F)F)cc1 , which call appears in the assay record?
## Result false (0)

----------
test: modulators of S6 phosphorylation in cells, primary screen, cell-based, A549, cytoblot, luminescence, serum-stimulated (AID 1158); details: A549 phospho-S6 cytoblot, 5 h, higher = more signal;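 note: serum-stimulated A549 lung adenocarcinoma cells; signal is phosphorylated S6 detected by cytoblot immunostaining with HRP secondary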
Kind request: treat 0.07 as inclusive, so z-score at 0.07 or higher is YES, anything lower is NO.

Field: example entries. Status: answers known.
compound	cat
COCCCNC(=O)[C@]1(Cc2ccccc2CN=[N+]=[N-])N=C(c2ccc(OCCCO)cc2)O[C@@H]1c1ccccc1	YES
COCCOC(=O)N1C(=O)[C@@]2(c3cc(C#CC4(O)CCCCCC4)ccc31)[C@H](C(N)=O)[C@H]1C(=O)O[C@H](c3ccccc3)[C@H](c3ccccc3)N1[C@@H]2c1ccccc1OCCO	YES
COCCOC(=O)N1C(=O)[C@@]2(c3cc(C#CCNC(N)=O)ccc31)[C@H](C(=O)N1CCCCCCC1)[C@H]1C(=O)O[C@H](c3ccccc3)[C@H](c3ccccc3)N1[C@@H]2c1ccc(O)cc1	YES
O=C(CCCCCCC(=O)Nc1ccccc1)N/N=C/c1ccccc1	NO
O=C1O[C@@H](c2ccccc2)[C@@H](c2ccccc2)N2[C@@H](c3ccc(O)cc3)[C@]3(C(=O)Nc4ccc(C#CC5=CCCCC5)cc43)[C@@H](C(=O)N3CCN(c4ncccn4)CC3)[C@H]12	YES

## Task Does the reported z-score for C=CC1c2cc(O)c(OC)cc2CCN1Cc1sc2ccccc2c1Cl (configuration not stated) fall at or above the 0.07 mark?
## Result NO

## Task Query COc1ccc(NN2C(C(O)c3ccccn3)C=CC3C(=O)N(C4CCCCC4)C(=O)C32)cc1 (configuration not stated) next
## Result NO

----------
assay: CREB reporter modulators without forskolin, primary screen, cell-based, PC12, CRE-LacZ reporter, unstimulated (AID 1145); settings: no forskolin, luminescence, 4.5 h, higher = more signal, called active from +8 up or from −8 down
measured property: z-score
# answer = number (no unit)

## Task Can you look up the measured z-score of CCOC(=O)[C@@H]1[C@@H]2C(=O)N(CC)C(=O)[C@@H]2C[C@@H]1Sc1ccccc1 for me?
## Result 0.136

## Task Query COc1ccc([Si](C)(C)[C@@H]2[C@@H](CCO)O[C@]3(C(=O)N(Cc4cccc(N5C(=O)c6ccccc6Oc6ccccc65)c4)c4ccccc43)[C@H]2C)cc1 next
## Result 6.17

## Task Query C=CCN1C(=O)[C@@]2(O[C@@H](CCn3cc([C@H](O)c4ccccc4)nn3)[C@H]([Si](C)(C)c3ccc(OC)cc3)[C@H]2C)c2ccccc21 next
## Result 3.9

## Task Query C=CC[C@]1(C(=O)N(C)C)N=C(c2ccc(OCCCO)cc2)O[C@H]1c1ccccc1N=[N+]=[N-] next
## Result 1.99

----------
composite z-score: recorded values
experiment: compound binding in COS7 lysate, probe aLAP1, primary screen, cell lysate, small-molecule microarray (AID 1124); settings: probe aLAP1, fluorescence, higher = more signal;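 note: lysate comes from COS7 cells expressing LAP1 and is applied at 0.3 µg/mL; score merges spot fluorescence near 667 nm with signal-to-noise over triplicate slides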
# answer = number (no unit)

molecule	measured
CON(C)C(=O)C=C1C[C@@H](c2cccc(Cl)c2)O[C@@H](c2cccc(Cl)c2)O1	0.166
CC[C@@H]1[C@H]2C3C(=O)N(CC)C(=O)C3CC(=O)[C@H]2[C@H](c2ccc(C)cc2)N1S(=O)(=O)c1ccc(C)cc1 (stereo not given in full)	-0.357
COc1ccc([Si](C)(C)[C@@H]2[C@@H](CCO)O[C@]3(C(=O)N(Cc4cccc(N5C(=O)c6cccc7cccc5c67)c4)c4ccccc43)[C@H]2C)cc1	-0.179
CO[C@H]1O[C@H](CO)[C@@H](OC(=O)Nc2ccc(C(F)(F)F)cc2)[C@H](OC(=O)Nc2ccc3c(c2)OCO3)[C@H]1OC(=O)Nc1ccc2c(c1)OCO2	0.59

Shifting focus to the molecule that follows.
## Task Can you look up the measured composite z-score of CC(C)CCC[C@@H](C)[C@H]1CC[C@@]2(C)C3=C(CC[C@]12C)[C@@]1(C)CC[C@H](OC(=O)c2ccc(Br)cc2)C(C)(C)C1CC3 (stereo not given in full) for me?
## Result 0.432

----------
experiment: small-molecule binders of probe aLefty1, primary screen, biochemical, small-molecule microarray, 635/667 nm fluorescence (AID 1153); conditions: higher = more signal;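 note: score merges spot fluorescence with signal-to-noise ratio from the scanned slide images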
composite z-score: recorded values
# answer = number (no unit)

## Task Can you look up the measured composite z-score of CCN(CC)c1ccc(N2CC=CC34O[C@@H]5/C=C\CCC(C)OC(=O)C5[C@H]3C(=O)N(CCO)[C@@H]4C2=O)cc1 (stereo partly drawn) for me?
## Result 0.33

## Task Query COc1ccc(C#Cc2ccc3c(c2)[C@]2(C(=O)N3)[C@H](C(=O)N3CCc4cc(OC)c(OC)cc4C3)[C@H]3C(=O)O[C@H](c4ccccc4)[C@H](c4ccccc4)N3[C@@H]2c2ccc(O)cc2)cc1 next
## Result 0.0839

## Task Query CCOC(=O)C[C@H]1[C@H](OC(=O)c2ccccc2-c2ccccc2)[C@@H](NC(=O)CC(C)C)c2cc(OCCCO)ccc2N1C(=O)c1ccc2ccccc2n1 next
## Result -0.192

----------
z-score: recorded values
experiment: mitochondrial membrane potential change in A549 cells, profiling panel, cell-based, JC-1 fluorescence, basal, 24 h, 100 nL (AID 1138); conditions: higher = more signal;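 note: A549 lung adenocarcinoma cells under basal conditions with no added stimulus; test concentration not given here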

Field: example entries. Status: answers known.
compound	measured property	measured
NC(N)=NCc1cn(CCc2c[nH]c3ccccc23)nn1	z-score	0.0134
CCOC(=O)C[C@H]1[C@H](OC(=O)Cc2ccc3c(c2)OCO3)[C@@H](NC(=O)Cc2ccc(OC)cc2)c2cc(OCCCO)ccc2N1C(=O)c1ccccc1	z-score	1.57
CCOC(=CC(=O)OC)CC(O)c1cccc(Cl)c1 (configuration not stated)	z-score	1.32

Shifting focus to the compound that follows.
## Task Can you look up the measured z-score of COCCOC(=O)N1C(=O)[C@@]2(c3cc(C#CC4=CCCCC4)ccc31)[C@H](c1ccccc1OCCO)N1[C@H](c3ccccc3)[C@H](c3ccccc3)OC(=O)[C@H]1[C@@H]2C(=O)N1CCc2cc(OC)c(OC)cc2C1 for me?
## Result -0.682

----------
experiment: basal 3T3-L1 adipocyte mitochondrial potential changes, profiling panel, cell-based, JC-1 fluorescence, 3T3-L1 adipocytes, 24 h, 100 nL compound (AID 1168); conditions: JC-1 mitochondrial fluorescence, higher = more signal, called active from +8 up or from −8 down; note: test concentration not given here
z-score: recorded values
# answer = number (no unit)

Field: example entries. Status: answers known.
compound	measured property	measured
COc1c(C)cc(-c2cc3c(c(-c4ccccc4)n2)[Si](C(C)C)(C(C)C)OC3)cc1C	z-score	-0.00733
COC(=O)[C@@]1(Cc2ccc(F)cc2)[C@H]2c3cc(C(=O)N4CCCC4)n(CCc4c[nH]c5ccc(OC)cc45)c3C[C@H]2CN1C(=O)c1ccccc1	z-score	-1.33
COc1ccc([Si](C)(C)[C@H]2[C@H](CCn3cc([C@H](O)c4ccccc4)nn3)O[C@@]3(C(=O)N(Cc4ccc(N5CCOC5=O)cc4)c4ccccc43)[C@@H]2C)cc1	z-score	0.174
C=CC1c2cc(O)c(OC)cc2CCN1Cc1sc2ccccc2c1Cl (stereo not drawn)	z-score	-0.224
C=C(COC)/C(=C/C[C@@H](OC(=O)c1ccncc1)c1ccc(OCCO)cc1)c1cnc2ccccc2c1	z-score	-0.892
CCOC(=O)C[C@H]1[C@H](OC(=O)c2ccc(-c3ccccc3)cc2)[C@@H](NC(=O)c2ccc3ccccc3c2)c2cc(OCCCO)ccc2N1C(=O)c1ccc2ccccc2n1	z-score	1.26
O=C1c2ccccc2[C@](Cc2ccccc2I)(C(=O)NCc2ccccc2)[C@H](c2ccc(CO)cc2)N1C1CCCCC1	z-score	-0.424
O=C1OCC=C[C@H]2OC34C=CCN(c5ccc(Cl)cc5)C(=O)[C@H]3N(CCCCCO)C(=O)[C@@H]4[C@@H]12 (stereo partly drawn)	z-score	0.37
CCOC(=O)C1=CC[C@@H](c2cc(Cl)ccc2Cl)N(S(=O)(=O)c2ccc(C)cc2)[C@H]1c1ccc(OC)cc1	z-score	-1
CC(C)(C)OC(=O)CC[C@@]1(C(=O)O)N=C(c2ccc(OCCCO)cc2)O[C@@H]1c1ccccc1	z-score	-0.445

## Task Can you look up the measured z-score of O=C(CS)NCCCCCCNC(=O)[C@@H]1C[C@@H]2C(=O)N3CCC[C@H]3C(=O)N2[C@@H]1c1cccc(OCCO)c1 for me?
## Result 0.193

## Task Query C[C@H]1C2=C3C(CC[C@H]4C(OCc5ccc(F)cc5C(F)(F)F)OC[C@](C)([C@@H]34)N(C(=O)OC(C)(C)C)C2)C(CO)C1CO (stereo partly drawn) next
## Result -1.13

## Task Query C[C@]12C(=O)N(CCCCCCO)[C@@H]3C(=O)N(c4ccc(Cl)cc4)CC=CC31O[C@@H]1/C=C\CCCOC(=O)C12 (stereo partly drawn) next
## Result -0.317

## Task Query COCCOC(=O)N1C(=O)[C@@]2(c3cc(C#CCNC(N)=O)ccc31)[C@H](C(=O)N1CCCCCCC1)[C@H]1C(=O)O[C@H](c3ccccc3)[C@H](c3ccccc3)N1[C@@H]2c1ccc(O)cc1 next
## Result -0.379

## Task Query C=CCC(OC(C)=O)[C@@H]1[C@@H](N(Cc2cc3ccccc3o2)C(=O)c2ccc(C)cc2)c2cc(OCCCO)ccc2N1C(=O)Cc1ccc2ccccc2c1 (stereo partly drawn) next
## Result -0.577

## Task Query C[C@]1(C(=O)O)c2ccccc2C(=O)N(Cc2ccccc2)[C@H]1c1ccc(CO)cc1 next
## Result 0.114

## Task Query COC(=O)[C@@]1(Cc2ccccc2)[C@H]2c3cc(C(=O)N4CCCC4)[nH]c3C[C@H]2CN1C(=O)c1ccccc1 next
## Result -1.17

## Task Query CCOC(=O)C[C@H]1[C@H](OC(=O)c2ccc(-c3ccccc3)cc2)[C@@H](NC(=O)C2CCCCC2)c2cc(OCCCO)ccc2N1C(=O)c1ccccc1 next
## Result -0.983

## Task Query CC=CC(O)C1C=CC2C(=O)N(C)C(=O)C2N1N1CCCCC1 (stereo not drawn) next
## Result -1.36

## Task Query COc1cc2c(cc1OC)CN(C(=O)[C@H]1[C@@H]3C(=O)O[C@@H](c4ccccc4)[C@@H](c4ccccc4)N3[C@@H](c3ccc(OCCO)cc3)[C@]13C(=O)Nc1ccc(C#CC4(O)CCCCCC4)cc13)CC2 next
## Result 0.568

## Task Query CCCC[C@@H]1C[C@H]1[C@@H](NC(=O)c1cccnc1)c1ccc(-c2ccccc2)cc1 next
## Result -1.18

## Task Query [N-]=[N+]=Nc1ccccc1[C@H]1OC(c2ccc(OCCCO)cc2)=N[C@@]1(CCS(=O)(=O)c1ccccc1)C(=O)N1CCCCC1 next
## Result -0.903

## Task Query [N-]=[N+]=Nc1ccccc1C[C@]1(C(=O)NCc2ccccc2)N=C(c2ccc(OCCCO)cc2)O[C@H]1c1ccccc1 next
## Result -0.095

## Task Query CC=CC(O)C1C=CC2C(=O)N(c3ccccc3)C(=O)C2N1Nc1ccccc1 (stereo not drawn) next
## Result 0.243

## Task Query C=CCNC(=O)[C@@H]1[C@H]2C(=O)O[C@H](c3ccccc3)[C@H](c3ccccc3)N2[C@H](c2ccccc2OCCO)[C@@]12C(=O)N(C(=O)OCCOC)c1ccc(C#CC3=CCCCC3)cc12 next
## Result 1.74

## Task Query [N-]=[N+]=NCc1ccccc1C[C@@]1(C(=O)NCCN2CCOCC2)N=C(c2ccc(OCCCO)cc2)O[C@@H]1c1ccccc1N=[N+]=[N-] next
## Result -1.38

## Task Query O=C1NC(=O)C2C1C=CC(C(O)c1ccc(Br)cc1)N2Nc1ccccn1 (stereo not drawn) next
## Result 0.195

## Task Query O=C1O[C@@H](c2ccccc2)[C@@H](c2ccccc2)N2[C@@H](c3ccccc3OCCO)[C@]3(C(=O)Nc4ccc(C#CCCO)cc43)[C@@H](C(=O)N3CCN(c4ncccn4)CC3)[C@H]12 next
## Result 0.778
